Attribution: the MegaScale stability set (Tsuboyama et al. 2023)

B1: 6NMW (parent)
chain: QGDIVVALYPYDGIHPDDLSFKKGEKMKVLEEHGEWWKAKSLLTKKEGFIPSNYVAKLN

Variants of: B1
experimental protocol: folding stability dG (cDNA display proteolysis); higher = more stable
measurement context: PBS, room temperature
For each record, write down the corresponding folding stability dG.
Numbers only, in kcal/mol.

Worked cases, folding stability dG given:
L19W; 0.23
H33A; 3.01
K46C; 3.37
K57G; 2.27

// input: 7 variants below; output: folding stability dG for each
1. Y9M
2. D3M
3. I4L
4. V5T
5. S41L
6. G13P
7. K40M

1: 3.43; 2: 4.59; 3: 3; 4: 0.383; 5: 1.15; 6: 2.3; 7: 4.1

// input: 7 variants below; output: folding stability dG for each
1. D17I
2. I50D
3. I14W
4. P51Y
5. K26F
6. A56K
7. G48C

1. 2.2
2. -0.59
3. 2.68
4. 1.26
5. 4.75
6. 4.04
7. 0.255

// input: 5 variants below; output: folding stability dG for each
1. L43I
2. K23A
3. G34A
4. G13L
5. D12L

[3.26, 3.39, 2.02, 0.825, 3.69]

// input: 3 variants below; output: folding stability dG for each
1. E47H
2. N59C
3. I4Y

[2.22, 4.64, 2.98]
